Entry source: patent US10098350B2

System: Puccinia recondite f. sp. tritici
Experiment: Test D: wheat seedlings sprayed with test suspension, inoculated with Puccinia recondite f. sp. tritici (wheat leaf rust), visual disease rating
Format: in vivo
Settings: Cmpd. No. marked '#' (other test rate; meaning of mark not shown)
The entries below are paired with their reported Test D rating (% disease control).
Response body: numeric value in %, unit text excluded.

| compound | scale_unit | Test D rating (% disease control) |
| --- | --- | --- |
| CC(c1ccc(-n2ccc(C(F)(F)F)n2)nc1)N(C(=O)c1cn(C)nc1C(F)F)C1CC1 (centres unmarked) | % | 28 |
| Cn1cc(C(=O)N(Cc2ccc(-n3ccc(Cl)n3)cn2)C2CC2)c(C(F)F)n1 | % | 28 |
| Cn1cc(C(=O)N(Cc2cccc(-n3ccc(C(F)(F)F)n3)c2)C2CC2)c(C(F)F)n1 | % | 74 |
| Cn1cc(C(=O)N(Cc2ccc(-n3ccc(-c4ccccc4)n3)cn2)C2CC2)c(C(F)F)n1 | % | 74 |

# evaluate next
Task item: Consider the compound "Cn1cc(C(=O)N(Cc2ccc(-n3cc(Cl)cn3)cn2)C2CC2)c(C(F)F)n1" and give its recorded Test D rating (% disease control).
Reply: 28
